Test system: Kuramochi cells labeled with mApple-H2B
Assay: IncuCyte Cell Proliferation Assay
Type: cell-based
Conditions: 72 h
Recorded IC50 values for a group of compounds are listed next.

// known answers, use as guide
[[record]]
compound = "CNC(=O)[C@@H](NC(=O)[C@@H]1CN(C(=O)c2cnn(Cc3ccccc3)c2)CC12CN(C(=O)N(C)C1CC1)C2)[C@@H](C)OCC1CCCCC1 [I-295]"
recordedmeasurement = "5 to 20 µM"

[[record]]
compound = "CNC(=O)[C@@H](NC(=O)[C@@H]1CN(C(=O)c2cnc(CC3CC3)s2)CC12CN(C(=O)[C@H]1CC1(C)C)C2)[C@@H](C)OCC1CCCCC1 [I-177A]"
recordedmeasurement = "5 to 20 µM"

[[record]]
compound = "CO[C@H]1COCC[C@@H]1NC(=O)[C@@H]1CN(C(=O)c2cnn(Cc3ccccc3)c2)CC12CN(C(=O)[C@H]1CC1(C)C)C2 [I-131A]"
recordedmeasurement = "> 20 µM"

[[record]]
compound = "C[C@@H](OCC1CCCCC1)[C@H](NC(=O)[C@H]1CN(C(=O)c2cnn(Cc3ccccc3)c2)CC12CN(C(=O)[C@H]1CC1(C)C)C2)C(=O)N1CCCCC1 [I-194B]"
recordedmeasurement = "5 to 20 µM"


Turning now to a further record.
For CNC(=O)[C@@H](NC(=O)[C@@H]1CN(C(=O)c2cncs2)CC12CN(C(=O)[C@H]1CC1(C)C)C2)[C@@H](C)OCC12CCC(CC1)OC2 [I-342] , write its IC50.
0.5 to 5 µM
